study target: CB1 cannabinoid receptor (Homo sapiens)
Sequence (P21554 whole entry): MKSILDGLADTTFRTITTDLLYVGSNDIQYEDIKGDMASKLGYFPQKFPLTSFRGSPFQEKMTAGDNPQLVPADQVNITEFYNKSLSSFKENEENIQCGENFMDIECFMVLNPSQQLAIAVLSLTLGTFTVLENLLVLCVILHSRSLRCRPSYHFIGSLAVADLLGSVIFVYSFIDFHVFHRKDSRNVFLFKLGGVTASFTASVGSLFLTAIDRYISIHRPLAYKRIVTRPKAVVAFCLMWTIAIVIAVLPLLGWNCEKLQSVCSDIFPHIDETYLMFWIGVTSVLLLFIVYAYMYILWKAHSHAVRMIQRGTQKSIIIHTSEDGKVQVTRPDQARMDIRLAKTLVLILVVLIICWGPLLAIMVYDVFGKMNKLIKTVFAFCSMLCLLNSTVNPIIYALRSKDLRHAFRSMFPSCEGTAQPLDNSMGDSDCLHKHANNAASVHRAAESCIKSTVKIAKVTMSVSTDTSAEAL
assay explanation: CB1 receptor binding affinity
stated conditions: read-out: CB1 Receptor Ki
The following molecules are shown together with reported Ki values.

[
  {
    "molecule": "C=C(C)[C@@H]1CCC(C)=C[C@H]1c1c(O)cc(O)cc1Br (relative stereo)",
    "Ki, µM": 7.46
  },
  {
    "molecule": "CCCCCc1cc(O)cc(O)c1[C@@H]1C=C(C)[C@@H]2C[C@H]1C2(C)C",
    "Ki, µM": 10.1
  },
  {
    "molecule": "[2H]C([2H])([2H])CCc1cc(O)c([C@@H]2C=C(C)CC[C@H]2C(=C)C)c(O)c1 (relative stereo)",
    "Ki, µM": 8.39
  },
  {
    "molecule": "C=C(C)[C@@H]1CCC(C)=C[C@H]1c1c(O)cc(O)cc1CCCCBr (relative stereo)",
    "Ki, µM": 12.5
  }
]
